Entries and their NanoBRET Fold Response
# ASSAYED_TARGET: F2RL3 (Homo sapiens)
# Construct: purchased Promega (in-house HiBiT-GPCR construct library, NanoBRET)
# Sequence (Q96RI0 18-385): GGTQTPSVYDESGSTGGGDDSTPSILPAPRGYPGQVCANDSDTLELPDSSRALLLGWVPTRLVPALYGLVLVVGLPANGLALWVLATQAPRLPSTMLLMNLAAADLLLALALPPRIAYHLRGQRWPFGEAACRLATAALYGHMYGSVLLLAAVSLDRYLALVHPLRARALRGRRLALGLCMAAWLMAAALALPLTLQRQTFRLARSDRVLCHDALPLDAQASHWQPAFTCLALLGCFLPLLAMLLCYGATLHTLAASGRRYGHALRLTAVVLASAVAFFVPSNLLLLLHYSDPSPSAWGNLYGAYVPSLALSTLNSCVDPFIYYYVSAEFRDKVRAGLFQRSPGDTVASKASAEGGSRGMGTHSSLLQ
# ASSAY: NanoBRET screen HiBiT-F2RL3 in HEK293
# Assay type: binding
# TEST_CONDITIONS: F2RL3; tracer 1μM
# Procedure: Each tracer candidate was screened across the entire library of HiBiT-GPCR constructs using NanoBRET as the detection modality. As depicted in Figure 4A, the specificity of interactions was evaluated through decrease in BRET due to competitive displacement of a bound tracer by excess parental compound. Each tracer was analyzed for binding to each HiBiT-GPCR fusion in the absence and in the presence of competing parental compound. […]
Respond using a number only.

compound=Cc1cc2c(s1)Nc1ccccc1N=C2N1CCN(CCCNC(=O)CCOCCOCCOCCOCCNC(=O)CCc2ccc3n2[B-](F)(F)[N+]2=C(c4ccc[nH]4)C=CC2=C3)CC1 assayed_target="F2RL3 (Homo sapiens)" data_value=0.98
compound="Cc1nc2n(c(=O)c1CCN1CCC(c3noc4cc(F)ccc34)CC1)CCCC2OC(=O)NCCOCCOCCOCCOCCNC(=O)CCc1ccc2n1[B-](F)(F)[N+]1=C(c3ccc[nH]3)C=CC1=C2 (stereo not drawn)" assayed_target="F2RL3 (Homo sapiens)" data_value=0.97

Now for the compound whose NanoBRET Fold Response we want.
Query block: Report measured NanoBRET Fold Response; entry is `COc1ccccc1N1CCN(CCCCN2C(=O)c3ccc(CNC(=O)CCOCCOCCOCCOCCNC(=O)CCc4ccc5n4[B-](F)(F)[N+]4=C(c6ccc[nH]6)C=CC4=C5)cc3C2=O)CC1`
Result block: 1.01

* * *

Entries and their NanoBRET Fold Response
# ASSAYED_TARGET: NMUR2 (Homo sapiens)
# Construct: purchased Promega (in-house HiBiT-GPCR construct library, NanoBRET)
# Sequence (Q9GZQ4 whole entry): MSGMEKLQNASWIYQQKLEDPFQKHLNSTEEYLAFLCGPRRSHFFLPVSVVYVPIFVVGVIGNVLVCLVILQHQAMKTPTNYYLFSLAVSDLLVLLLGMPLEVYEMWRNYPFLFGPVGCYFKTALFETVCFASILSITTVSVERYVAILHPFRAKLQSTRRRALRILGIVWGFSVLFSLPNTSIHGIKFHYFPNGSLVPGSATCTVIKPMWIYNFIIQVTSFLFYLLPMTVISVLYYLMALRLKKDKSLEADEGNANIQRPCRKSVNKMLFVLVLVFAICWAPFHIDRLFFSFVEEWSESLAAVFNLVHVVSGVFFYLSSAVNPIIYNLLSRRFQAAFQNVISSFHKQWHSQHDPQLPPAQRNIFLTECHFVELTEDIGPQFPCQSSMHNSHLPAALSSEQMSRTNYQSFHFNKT
# ASSAY: NanoBRET screen HiBiT-NMUR2 in HEK293
# Type: binding
# TEST_CONDITIONS: NMUR2; tracer 0.1μM
Respond using a number only.

compound=N#CN=C(NCCCOc1cccc(CN2CCCCC2)c1)NCCNC(=O)CCOCCOCCOCCOCCNC(=O)CCc1ccc2n1[B-](F)(F)[N+]1=C(c3ccc[nH]3)C=CC1=C2 observation_type="NanoBRET Fold Response" data_value=1.02
compound=O=C(CCOCCOCCOCCOCCNC(=O)CCc1ccc2n1[B-](F)(F)[N+]1=C(c3ccc[nH]3)C=CC1=C2)NCCCN1CCN(C2=Nc3ccccc3Oc3ccc(Cl)cc32)CC1 observation_type="NanoBRET Fold Response" data_value=1.07
compound=COc1ccccc1N1CCN(CCCCN2C(=O)c3ccc(CNC(=O)CCOCCNC(=O)c4ccc(CNC(=O)CCc5ccc6n5[B-](F)(F)[N+]5=C(c7ccc[nH]7)C=CC5=C6)cc4)cc3C2=O)CC1 observation_type="NanoBRET Fold Response" data_value=1.04
compound="Cc1nc2n(c(=O)c1CCN1CCC(c3noc4cc(F)ccc34)CC1)CCCC2OC(=O)NCCOCCOCCOCCOCCNC(=O)CCc1ccc2n1[B-](F)(F)[N+]1=C(c3ccc[nH]3)C=CC1=C2 (stereo not shown)" observation_type="NanoBRET Fold Response" data_value=1.09
compound=CCCn1c(=O)c2[nH]c(-c3ccc(OCC(=O)NCCNC(=O)CCOCCNC(=O)c4ccc(CNC(=O)CCc5ccc6n5[B-](F)(F)[N+]5=C(c7ccc[nH]7)C=CC5=C6)cc4)cc3)nc2n(CCC)c1=O observation_type="NanoBRET Fold Response" data_value=1.11
compound=CC(C)N(CC[C@H](c1ccccc1)c1cc(CCNC(=O)c2ccc(CNC(=O)CCc3ccc4n3[B-](F)(F)[N+]3=C(c5ccc[nH]5)C=CC3=C4)cc2)ccc1O)C(C)C observation_type="NanoBRET Fold Response" data_value=1.00
compound=O=C(CCc1ccc2n1[B-](F)(F)[N+]1=C(c3ccc[nH]3)C=CC1=C2)NCCOCCOCCNC(=O)OCCOCCN1CCN(C2=Nc3ccccc3Sc3ccccc32)CC1 observation_type="NanoBRET Fold Response" data_value=1.02
compound=CC(C)N(CC[C@H](c1ccccc1)c1cc(CCNC(=O)CCOCCOCCOCCOCCNC(=O)CCc2ccc3n2[B-](F)(F)[N+]2=C(c4ccc[nH]4)C=CC2=C3)ccc1O)C(C)C observation_type="NanoBRET Fold Response" data_value=1.31

Query block: Report measured NanoBRET Fold Response; entry is O=C(CCc1ccc2n1[B-](F)(F)[N+]1=C(c3ccc[nH]3)C=CC1=C2)NCc1ccc(C(=O)NCCOCCC(=O)N[C@@H]2CC[C@@]3(O)[C@H]4Cc5ccc(O)c6c5[C@@]3(CCN4CC3CC3)[C@H]2O6)cc1 [Naltrexone-3-NB590]
Result block: 0.78

Query block: Report measured NanoBRET Fold Response; entry is `Cc1cc2c(s1)Nc1ccccc1N=C2N1CCN(CCCNC(=O)CCOCCOCCOCCOCCNC(=O)CCc2ccc3n2[B-](F)(F)[N+]2=C(c4ccc[nH]4)C=CC2=C3)CC1`
Result block: 0.94

All values here come from paper PMC8151276.
